Target Or System: PDL1, Q9NZQ7
Sequence (Q9NZQ7 whole entry): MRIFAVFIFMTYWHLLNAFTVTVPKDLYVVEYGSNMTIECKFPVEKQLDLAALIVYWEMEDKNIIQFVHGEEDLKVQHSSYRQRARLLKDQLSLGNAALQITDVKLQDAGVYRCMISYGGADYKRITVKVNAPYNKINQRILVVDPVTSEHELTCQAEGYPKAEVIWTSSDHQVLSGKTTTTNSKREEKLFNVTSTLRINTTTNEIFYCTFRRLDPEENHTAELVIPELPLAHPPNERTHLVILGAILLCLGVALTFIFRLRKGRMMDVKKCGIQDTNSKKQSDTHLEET
Mark one answer only. Choices: TRUE for active, FALSE for inactive

A selection of reference data follows.
>>> assigned_class("d8r1_design_ppi_36_dldesign_0_cycle0_af2pred (protein) REEVRAKLEAAAAALREVDPVAGEGFRRLAELAFSGEVNGAWAALASLLEHYLPAAEAHDPELGAIVAEAREAALEEWERIQAE")
"FALSE"
>>> assigned_class("d8r1_design_ppi_1425_dldesign_0_cycle1_af2pred (protein) SVEERKKRAEAIAKRSRAVARALAAADPARGIALAESAAVSFEKWAELYPEIKEFAEALAAEHRALAAEIRAAA")
"FALSE"
>>> assigned_class("d8r1_design_ppi_1471_dldesign_0_cycle0_af2pred (protein) MDDSFGKNVIIDAEREIKRFEEAAKKAEEEDKEVAKEIKKIAEEIKKEAEKIKKGEGKLEHSKKALEAMSKGARLVAEFKAK")
"FALSE"
>>> assigned_class("d8r1_design_ppi_1104_dldesign_0_cycle1_af2pred (protein) DDLLKQAQATLKQAAALAATVSLAAASDFNAAMFLMRNPKNIPQAIKYAQQGAALAAASAKAPQIKALADEAVKLMKALAKAAAA")
"FALSE"
>>> assigned_class("d8r1_design_ppi_1423_dldesign_0_cycle0_af2pred (protein) STAEKIAKYNKFAEEAKAAAKRVAEEGEEAAKEAIETLKKLAKESDAETAETLNKLAEIAEEGGGSAALAAMQAAAVHFANKAAKLAA")
"FALSE"
>>> assigned_class("d8r1_design_ppi_568_dldesign_0_cycle1_af2pred (protein) AARHLALAIRGVLKADDAGDAEAAAKAKALLAKAAAALAAGDEAAAKAYATQAAAVADPAYAPVAEAVAAAAAA")
"FALSE"
>>> assigned_class("d8r1_design_ppi_156_dldesign_0_cycle0_af2pred (protein) MEEEREREEERRREARRMAQALENAAEAVAARAAAASPAEQPALARAAESLAAAAKVLQKEDPELGAAVEKRAEAILAEIRAR")
"FALSE"
>>> assigned_class("d8r1_design_ppi_877_dldesign_0_cycle0_af2pred (protein) ALRAATEALLAEAERLREEILELGRAAESESVRNFAEGVAREVERLIAEAKAAAADPEAALALAQAALRTAREGLAGVRALTAAKAE")
"FALSE"

Q: Could you check what this test reported for d8r1_design_ppi_705_dldesign_0_cycle0_af2pred (protein) MTPSTRAMLHIGRANAAAQALAADPAAAAAAVAEEMAAAAREAAKASPEVREQNLRAMDAAVAALKAANPAVGAAARAAMEEELARL ?
Ans: FALSE

Q: Could you check what this test reported for d8r1_design_ppi_59_dldesign_0_cycle1_af2pred (protein) MSELSEKLIEAAIAAHRAAAELAALGAPAEAAAHRAKAAKLFGEARKLIQEGDEEKAKKALEEAEALAAAAAAAAKKARAAAAAA ?
Ans: FALSE

Q: Could you check what this test reported for d8r1_design_ppi_987_dldesign_0_cycle0_af2pred (protein) QAVLDKANELLAKAMKLFGKLSPENYAAALAAADAAIAAAKELQKEDPELGAALLASAEALKAAIKAKAA ?
Ans: FALSE

Q: Could you check what this test reported for d8r1_design_ppi_423_dldesign_0_cycle0_af2pred (protein) SEFDKNMELLKEAGAAISELTARARAEADAAAAEGPDAVRAVAAERIEEARRITEELGEKSSLKESFRGMAERTARTIEAYAAAVIA ?
Ans: FALSE

Q: Could you check what this test reported for d8r1_design_ppi_1130_dldesign_0_cycle1_af2pred (protein) SMEEAEKAAKEIIELAKKAAEDPSYIDELAALAAKYIGSPEAKEALAEAIKILSKKSPELAKQFLAKYSAALAALRAAA ?
Ans: FALSE

Q: Could you check what this test reported for d8r1_design_ppi_321_dldesign_0_cycle1_af2pred (protein) GSNFEKAYYAGEAYSYAYAAVKEAKALVKALGDAAKPLLDEAEALLKKIEEVLKNGNLEEAKKMLEEAKALLEKVKAA ?
Ans: TRUE
